Target: Phosphatidylinositol 4-kinase beta (Homo sapiens) (UniProt Q9UBF8);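 note: values given are mean percent inhibition of PI4K-beta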
Sequence (Q9UBF8 2-816 limits assumed): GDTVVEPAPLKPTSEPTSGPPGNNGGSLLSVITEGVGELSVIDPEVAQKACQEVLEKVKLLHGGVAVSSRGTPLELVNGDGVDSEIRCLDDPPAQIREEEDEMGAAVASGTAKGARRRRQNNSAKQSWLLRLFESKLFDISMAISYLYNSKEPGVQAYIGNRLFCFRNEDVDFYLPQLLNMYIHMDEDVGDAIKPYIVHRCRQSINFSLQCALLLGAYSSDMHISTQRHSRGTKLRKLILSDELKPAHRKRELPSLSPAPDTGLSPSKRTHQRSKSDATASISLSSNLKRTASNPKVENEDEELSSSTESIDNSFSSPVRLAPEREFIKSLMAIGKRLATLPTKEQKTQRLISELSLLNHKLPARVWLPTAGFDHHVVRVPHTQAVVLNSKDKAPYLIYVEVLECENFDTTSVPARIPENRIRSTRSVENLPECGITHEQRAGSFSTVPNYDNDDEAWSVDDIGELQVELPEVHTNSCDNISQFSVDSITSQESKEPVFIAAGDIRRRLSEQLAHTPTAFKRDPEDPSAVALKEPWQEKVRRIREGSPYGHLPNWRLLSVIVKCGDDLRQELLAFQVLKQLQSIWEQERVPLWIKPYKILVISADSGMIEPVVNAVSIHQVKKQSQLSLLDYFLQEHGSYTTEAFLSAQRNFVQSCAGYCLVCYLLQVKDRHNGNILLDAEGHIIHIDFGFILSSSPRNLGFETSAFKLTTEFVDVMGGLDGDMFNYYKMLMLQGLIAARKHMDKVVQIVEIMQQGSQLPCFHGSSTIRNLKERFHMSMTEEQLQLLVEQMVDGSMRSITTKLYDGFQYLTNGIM
Conditions: at 0.1 µM
Overview of reported inhibition across a group of molecules:
// note: answer is a bare numeric in %

Below, each entry is followed by its recorded inhibition result.
1) O=C(O[C@H]1CN[C@H](C#Cc2cc3ncnc(Nc4ccc5c(cnn5Cc5ccccc5)c4)c3s2)C1)N1CCOCC1 = 1.41
2) NC(=O)c1ccc2c(-c3ccnc(NCCCO)n3)c(-c3ccc(F)cc3)nn2c1 = -2.18
3) CS(=O)(=O)Nc1ccc(-c2cc(-c3ccccc3)cc(C(N)=O)c2N)cc1 = 0.42
4) COc1cc2c(cc1Nc1nc(Nc3cccc(F)c3C(N)=O)c3cc[nH]c3n1)N(C(=O)CN1CCN(C(C)C)CC1)CC2 = -0.22
5) CC1(C)CC(n2cnc(-c3ccc(F)cc3)c2-c2ccnc(N)n2)CC(C)(C)N1 = 0.64

# get_value(readout='inhibition', item= `CNC(=O)c1cncc(/C=C/c2ccccc2C)c1` ) -3.61

Continue with CC1=C(C(=O)Nc2ccc3[nH]ncc3c2)C(c2ccc(F)cc2)N=C(c2ccc(C(F)(F)F)nc2)N1 (stereo not given) 4.33

Continue with `COc1cc(Nc2ncc(-c3ccccc3)o2)cc(OC)c1` 0.33

Continue with `CNC(=O)c1sc(-n2cnc3cc(OC)c(OC)cc32)cc1OCc1ccccc1C(F)(F)F` 6.54

Continue with `CN1CCN(Cc2ccc(-c3cc4ncnc(Nc5ccc(OCc6cccc(F)c6)c(Cl)c5)c4s3)o2)CC1` 0.91

Continue with `COC(=O)Nc1nc2cc(Oc3ccc(NC(=O)Nc4ccccc4)cc3)ccc2[nH]1` 3.09

Continue with `CS(=O)(=O)CCNCc1ccc(-c2ccc3ncnc(Nc4ccc(OCc5cccc(C(F)(F)F)c5)cc4)c3c2)o1` 0.98

Continue with `Cc1ccc(-c2cc3c(NC(=O)C4CC4)ncnc3o2)cc1` -4.86

Continue with `COc1ccc(Nc2ncc(-c3ccccc3)o2)cc1OC` 2.22

Continue with `Cc1cc(O)cc(C)c1/C=C/c1cncc(C(N)=O)c1` 0.44

Continue with `NS(=O)(=O)c1ccc(N/N=C2\C(=O)Nc3ccc(C(=O)NCc4ccncc4)cc32)cc1` -0.51

Continue with `CCOc1ccc2c(-c3ccnc(Nc4cc(OC)cc(C(F)(F)F)c4)n3)cnn2n1` 3.54

Continue with `Cn1c(-c2nonc2N)nc2cnccc21` 1.38

Continue with `Fc1ccc(Nc2nccc(-c3c(-c4ccc(C(F)(F)F)cc4)nn4ncccc34)n2)cc1F` -3.81

Continue with `CCN1CCC(C(=O)Nc2n[nH]c3nnc(-c4cccc(F)c4F)cc23)CC1` 0.1

* * *

Overview of reported inhibition across a group of molecules:
Target: Protein kinase C beta type (Homo sapiens);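 note: GSK PKIS screen, average inhibition of the PKC-beta2 splice variant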
Details: at 1 µM
Description: GSK_PKIS: PKC-beta2 (splice variant) mean inhibition at 1 uM [Nanosyn]
// note: answer is a bare numeric in %

Below, each entry is followed by its recorded inhibition result.
1. CCS(=O)(=O)c1ccc(OC)c(Nc2ncc(-c3cccc(F)c3)o2)c1 = 4.01
2. Cc1cc(O)cc(C)c1/C=C/c1cncc(C(=O)OC(C)(C)C)c1 = 1.05

# get_value(readout='inhibition', item= `CCOc1ccc2c(-c3ccnc(Nc4cc(OC)cc(C(F)(F)F)c4)n3)cnn2n1` ) 3.36

Continue with `COc1ccc2ncn(-c3cc(O[C@H](C)c4ccccc4C(F)(F)F)c(C(N)=O)s3)c2c1` 0.08

Continue with `CCn1c(-c2nonc2N)nc2cncc(C(=O)NCCNC)c21` 61

Continue with `N#Cc1ccc2c(-c3ccnc(NC4CC4)n3)c(-c3ccc(F)cc3)nn2c1` 4.8

Continue with `NS(=O)(=O)c1cccc(N/C=C2\C(=O)Nc3ccccc32)c1` 3.11

Continue with CC1=C(C(=O)Nc2ccc3[nH]nc(C)c3c2)C(c2ccc(C(F)(F)F)cc2)CC(=O)N1 (stereo not given) 1.95

Continue with `COc1ccc(-c2nn3ncccc3c2-c2ccnc(Nc3ccc(F)c(F)c3)n2)cc1` 3.24

Continue with `CN(C)CCNC(=O)Nc1ccc(N(C)c2ccnc(Nc3ccc(CS(C)(=O)=O)cc3)n2)cc1` 0.59
